The values you see were collected from PubChem BioAssay AID330.

system: P388 leukemia ip, CD2F1 mice, survival T/C; test: NCI In Vivo Anticancer Drug Screen. Data for tumor model P388 Leukemia (intraperitoneal) in CD2F1 (CDF1) mice; settings: endpoint: median survival time; dose: 60.0 mg/kg/injection; schedule: Q01DX005 (ip); vehicle: saline; higher = longer survival
Toxic doses and inconclusive results are not listed. Peptide text beside a SMILES is read from it. * marks the point of attachment. Bn = c1ccc(C*)cc1
Provide the recorded T/C for the entries that follow.

**Query** GET /values?readout=T/C&item= Cc1c(C(=O)O)no[n+]1[O-]
**Result** 101 % of control

**Query** Queued: NCC(=O)NCC(=O)NC(Cc1ccc(OCc2ccccc2)cc1)C(=O)NC(CCCN=C(N)N)C(=O)O (stereo unspecified) (H-GGY(Bn)R-OH; configuration not given here)
**Result** 95 % of control

**Query** Queued: CC(C)=CCCC(=O)Cc1nc2nnc(N)n2nc1CC(=O)CCC=C(C)C
**Result** 100 % of control

**Query** Queued: CN1N=C(c2ccccc2)N=P12N=C(c1ccccc1)NN2C (stereo unspecified)
**Result** 94 % of control

**Query** Queued: COC1(CO)C(=O)N(C)CC(=O)N1C (stereo unspecified)
**Result** 106 % of control

**Query** Queued: CC(CN(C)C)C(/C=C/c1ccccc1)=N\NC(=O)c1ccccc1 (stereo unspecified)
**Result** 97 % of control

**Query** Queued: C=C=COC
**Result** 93 % of control

**Query** Queued: CCCNCC/C=C/[Si](C)(C)C
**Result** 105 % of control

**Query** Queued: Clc1ccc2c(c1)C(c1ccccc1Cl)=NCC(SCCN1CCOCC1)=N2
**Result** 107 % of control

**Query** Queued: NC(=O)C1(Br)C=[N+](Cc2ccccc2)CCC1 (stereo unspecified)
**Result** 103 % of control

**Query** Queued: COC1OCCCO1
**Result** 103 % of control

====

tested on: P388 leukemia ip, CD2F1 mice, survival T/C; assay: NCI In Vivo Anticancer Drug Screen. Data for tumor model P388 Leukemia (intraperitoneal) in CD2F1 (CDF1) mice; settings: endpoint: median survival time; dose: 200.0 mg/kg/injection; schedule: Q01DX001 (ip); vehicle: saline with Tween-80; higher = longer survival
Toxic doses and inconclusive results are not listed.
MEASURED_ATTRIBUTE: T/C

**Query** GET /values?readout=T/C&item= [N-]=[N+]=NC(=O)c1cnn(Cc2ccccc2)c1N
**Result** 101 % of control

**Query** Queued: COP(=O)(OC)C1(Nc2ccccc2)C2CC3CC(C2)CC1C3 (stereo not drawn)
**Result** 110 % of control

**Query** Queued: CC(C(=O)O)C(C)(C)c1ccccc1 (stereo not drawn)
**Result** 99 % of control

**Query** Queued: CC1=C(/C=C/C(C)=C/C=C/C(C)=C/C=C2/CCOC2=O)C(C)(C)CCC1
**Result** 100 % of control

**Query** Queued: CCOC(=O)CCCCCOCOC
**Result** 98 % of control

**Query** Queued: CC/C(C=O)=C\NC(=O)Nc1ccccc1
**Result** 101 % of control

**Query** Queued: CN(C)CCP(=O)(O)O
**Result** 100 % of control

**Query** Queued: CC(=O)Oc1ccc2[nH]c(C)cc2c1
**Result** 98 % of control

**Query** Queued: COc1cc(OC)c2c(=O)c3ccc([N+](=O)[O-])cc3n(C)c2c1
**Result** 100 % of control

**Query** Queued: CCOC(=O)c1cnn(CC(OCC)OCC)c1N
**Result** 108 % of control

**Query** Queued: N#CC(C(=O)CCC(=O)C(C#N)c1nc2ccccc2s1)c1nc2ccccc2s1 (stereo not drawn)
**Result** 88 % of control

**Query** Queued: OCC1CC2(C1)CC(CO)C2 (stereo not drawn)
**Result** 104 % of control

**Query** Queued: Cn1nncc1NS(=O)(=O)c1ccc([N+](=O)[O-])cc1
**Result** 115 % of control
